Procedure text: Primary qHTS for inhibitors of nuclear receptor binding SET domain protein 2 (NSD2) in an isogenic RCH-ACV NSD2 p.E1099K mutant (9B) (AID 1645876); note: nearly all actives have a fitted effect of over 70% in size
Assay conditions: RCH-ACV (leukaemia line) NSD2 E1099K (9B) viability, CellTiter-Glo, 72 h; series mostly up to 44.9 µM
Results filed as inconclusive are left out. Calls of active or inactive are those of the source. Calls come from the whole dose curve; as a rule, active = well fitted inhibition curve with a large enough effect; inconclusive = small, poorly fitted or top-dose-only effect; inactive = flat fitted curve, though single readings scatter.
Possible outcomes: active, inactive

# Molecule, Class name
rows = [
    ("CC1(C(=O)O)CCCC2(C)C3=CCC4CC3(CCC12)CC4CO (stereo not drawn)", "inactive"),
    ("COc1ccc(Oc2cc(C)c(-c3csc(NC(=O)c4ccncc4)n3)c(C)c2)cc1", "active"),
    ("CC(=O)N1CCN(Cc2ccc([C@H](C)Nc3nccc(N4C(=O)OC[C@@H]4C(C)C)n3)cc2)CC1", "inactive"),
    ("C[C@@H]1CC[C@]2(C(=O)OC3OC(CO)C(O)C(O)C3O)CC[C@]3(C)C(=CCC4[C@@]5(C)CC[C@H](O)[C@](C)(C(=O)O)C5CC[C@]43C)C2[C@]1(C)O (stereo partly drawn)", "inactive"),
    ("COC(=O)C[C@H]1[C@]2(C)C3=C(C)[C@H](c4ccoc4)C[C@H]3O[C@@H]2[C@H](OC(C)=O)C2[C@](C)(C(=O)OC)C=CC(=O)[C@@]21C (stereo partly drawn)", "inactive"),
    ("COc1c2c(c(C)c3c1C(=O)OC3)OC1(C)CC(O)C34OC(OC)(CC(OC(C)=O)C3(C)C1C2)OC4(C)C (stereo not drawn)", "inactive"),
    ("CC12CCC(C(OC3OC(COC4OCC(O)(CO)C4O)C(O)C(O)C3O)C1)C(C)(C)O2 (stereo not drawn)", "inactive"),
    ("CC(C)(C)Nc1nc(Nc2ccc(C(N)=O)cc2)cc(N)c1C#N", "active"),
    ("CC(=O)OC12COC1CC(O)C1(C)C(=O)C(O)C3=C(C)C(OC(=O)C(O)C(NC(=O)OC(C)(C)C)c4ccccc4)CC(O)(C(OC(=O)c4ccccc4)C21)C3(C)C (stereo not drawn)", "active"),
    ("CC(C)=CCC[C@](C)(O[C@@H]1O[C@H](CO)[C@@H](O)[C@H](O)[C@H]1O)[C@H]1CC[C@]2(C)[C@@H]1[C@H](O)CC1[C@@]3(C)CC[C@H](O)C(C)(C)C3[C@@H](O[C@@H]3O[C@H](CO)[C@@H](O)[C@H](O)[C@H]3O)C[C@]12C (stereo partly drawn)", "inactive"),
    ("CN1CCc2nc(C(=O)N[C@@H]3C[C@@H](C(=O)N(C)C)CC[C@@H]3NC(=O)C(=O)Nc3ccc(Cl)cn3)sc2C1", "inactive"),
    ("COc1c2c(cc3c1-c1c(cc4c(c1OC)OCO4)CC(C)C(C)C3)OCO2 (stereo not drawn)", "inactive"),
    ("CC[C@@H](N)CNc1ccnc(-c2cc(-c3cnn(C)c3)ccc2O)n1", "active"),
    ("Nc1ncnc2c1ncn2CCNCCCCCO", "inactive"),
    ("CC1=CC(=O)C2(OC3OC(C)C(O)C(OC(=O)/C=C/c4ccccc4)C3O)C=COC(OC3OC(CO)C(O)C(O)C3O)C12 (stereo not drawn)", "inactive"),
    ("COc1cc(-c2ncn(/C=C\\C(=O)OC(C)C)n2)cc(C(F)(F)F)c1", "active"),
    ("CC1=C(/C=C/C(C)=C\\C=C\\C(C)=C/C(=O)O)C(C)(C)CCC1", "inactive"),
    ("FC(F)(F)c1cc(-c2ncn(/C=C\\c3nnco3)n2)cc(C(F)(F)F)c1", "active"),
    ("COc1ccc(C(=O)C2CCN(CC(=O)N(Cc3nc4c(c(=O)[nH]3)COCC4)CC3CC3)CC2)cc1", "inactive"),
    ("COC(=O)CCc1cc2ccoc2c(OC)c1O[C@@H]1O[C@H](CO)[C@@H](O)[C@H](O)[C@H]1O", "inactive"),
    ("CC(=O)O[C@H]1CC[C@@]2(C)C(CC[C@@H](C)[C@]23Cc2c(O)cc4c(c2O3)CN([C@@H](CCC(=O)O)C(=O)O)C4=O)C1(C)C (stereo partly drawn)", "inactive"),
    ("COc1cc(/C=C/C=O)cc(OC)c1O[C@@H]1O[C@H](CO)[C@@H](O)[C@H](O)[C@H]1O", "inactive"),
    ("COc1ncc(Nc2ncc([C@@H](C)N3CCN(S(C)(=O)=O)CC3)cc2-c2nc(C)nc(N)n2)cc1F", "active"),
    ("C/C(=C\\CCC1(C)C2CCC(C2)C1(C)O)C(=O)O (stereo not drawn)", "inactive"),
    ("CCOC(=O)Nc1cc(-c2ccc(C)c(NS(C)(=O)=O)c2)nn2c(C)nnc12", "active"),
    ("CC(C)(C)NCCCNC(=O)c1cccc(Br)c1", "inactive"),
    ("COc1cc2c3c(cc4ccccc4c3c1O)NC2=O", "inactive"),
    ("N#Cc1ccc2[nH]cc(CCCCN3CCN(c4ccc5oc(C(N)=O)cc5c4)CC3)c2c1", "active"),
    ("CC(C)O[C@@H]1O[C@H](CO)[C@@H](O)[C@H](O)[C@H]1O", "inactive"),
    ("CC(C)=CCC/C(C)=C/CCC1(C)Oc2c(c(O)cc3c2CN(C(CCC(=O)O)C(=O)O)C3=O)CC1O (stereo not drawn)", "inactive"),
    ("COc1ccc(CCO[C@@H]2O[C@H](CO[C@@H]3OC[C@H](O)[C@H](O)[C@H]3O)[C@@H](O)[C@H](O)[C@H]2O)cc1", "inactive"),
    ("CC(C)Oc1ccc(C(=O)NC(CNC(=O)CN(C)C)Cc2ccc(-c3cn4cccc(C(C)O)c4n3)cc2)cc1Cl (stereo not drawn)", "active"),
    ("Cc1c2cc(c(C(=O)O)c1C)OC1OC(C(O)C(O)C1O)C(O)C(O)C1OC(O2)C(O)C(O)C1O (stereo not drawn)", "inactive"),
]
